test: in vivo; settings: mouse, urine, po, control without sodium salicylate, cefmetazole 50 mg/kg, gavage, mice, ± standard deviation, 8 mice, read-out: Percent of Dose In Urine
MEASURE: dose excreted at 24 h (%)
Give just the numeric value; % need not be written.

Given the entry CO[C@@]1(NC(=O)CSCC#N)C(=O)N2C(C(=O)O)=C(CSc3nnnn3C)CS[C@@H]21 [Cefmetazole] , report its measured dose excreted at 24 h. 9.1
